# credit: patent US8436023B2

Biological target: CCR2 (Homo sapiens, UniProt P41597)
Construct: host or cells: THP-1 human monocytic cells
Sequence (P41597 1-360 isoform P41597-2): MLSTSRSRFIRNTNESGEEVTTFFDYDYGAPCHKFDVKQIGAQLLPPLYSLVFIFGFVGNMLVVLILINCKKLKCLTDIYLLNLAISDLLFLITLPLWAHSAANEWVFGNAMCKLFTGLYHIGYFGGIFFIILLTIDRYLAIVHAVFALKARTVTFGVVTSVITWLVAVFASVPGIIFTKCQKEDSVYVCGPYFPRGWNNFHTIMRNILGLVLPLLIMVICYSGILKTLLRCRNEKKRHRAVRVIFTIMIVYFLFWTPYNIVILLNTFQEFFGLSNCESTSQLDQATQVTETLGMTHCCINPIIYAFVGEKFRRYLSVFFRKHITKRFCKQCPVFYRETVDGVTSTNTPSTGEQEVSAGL
Assay: MCP-1 Receptor Binding Assay in THP-1 Cells
Details: 0.5 nM 125I labeled MCP-1, 2 hours at 30° C., less polar isomer tested where stated, read-out: Inhibition of MCP-1 Binding IC50, CCR2 Binding
pIC50: −log10 of the molar value.
endpoint: pIC50

The cases that follow already have their pIC50 on record.
compound	reportedResult
Cn1cc(C2(O)CCC(N3CC(NC(=O)CNc4nn(C)c5ccc(C(F)(F)F)cc45)C3)CC2)cn1 (stereo not drawn) [Example 25]	6.70
COc1ccc(C2(O)CCC(N3CC(NC(=O)CNc4nn(C)c5ccc(OC(F)(F)F)cc45)C3)CC2)cn1 (stereo not drawn) [Example 57]	7.22
COc1ccc(C2(O)CCC(N3CC(NC(=O)CNc4nn(C)c5ccc(C(F)(OC)C(F)(F)F)cc45)C3)CC2)cn1 (stereo not drawn) [Example 102]	7.48
CCOc1ccc(C2(O)CCC(N3CC(NC(=O)CNc4nn(C(=O)NC(C)(C)C)c5ccc(C(F)(F)F)cc45)C3)CC2)cn1 (stereo not drawn) [Example 82]	7.47

[1] COc1ccc(C2(O)CCC(N3CC(NC(=O)CNc4nn(C)c5ccc(C(F)(F)F)cc45)C3)CC2)cn1 (stereo not drawn) [Example 18]
[2] Cn1nc(NCC(=O)NC2CN(C3CCC(CO)CC3)C2)c2cc(C(F)(F)F)ccc21 (stereo not drawn) [Example 33]
Ask: Return label of the item with the larger pIC50. Candidates: 1 , 2 . Answer format: the label of the selected item.
Result: 1
